Hey, just so you know, these numbers are from paper PMC8807399.

- assay remarks: In vitro microsomal stability, human
- Format: in vitro ADME
- condition notes: human microsomes, 1 µM; value of 10 = low clearance, essentially below detection limit
This listing pairs compounds with measured Mic CL h.
Report the value in µL/m/mg prot with no unit label.

Recorded Mic CL h, per entry:
O=C(OCc1cc(Cl)cc(Cl)c1)N1CCC2(CC1)CN(C(=O)c1ccc3[nH]nnc3c1)C2 30
O=C(OCc1cc(Cl)cc(Cl)c1)N1C[C@@H]2CN(C(=O)c3ccc4[nH]nnc4c3)C[C@@H]2C1 23

Field: next compound
Query string: What value of Mic CL h has been reported for the following compound? O=C(OCc1cc(Cl)cc(Cl)c1)N1CC2(CCN(C(=O)c3ccc4[nH]c(=O)oc4c3)CC2)C1
Result string: 92

###

Reported values: pIC50 for human ATX (Homo sapiens, UniProt Q13822), one per item.
Answer as the number alone; pIC50 is minus log10 of concentration in mol/L.

compound	readout name	meas value
O=C(OCc1cc(Cl)cc(Cl)c1)N1CC[C@@H]2CN(C(=O)c3ccc4[nH]nnc4c3)C[C@@H]2CC1	pIC50	9.00
O=C(OCc1cc(Cl)cc(Cl)c1)N1C[C@@H]2CN(C(=O)c3ccc4[nH]c(=O)oc4c3)C[C@@H]2C1	pIC50	7.19

Field: next compound
Query string: What value of pIC50 has been reported for the following compound? O=C(OCc1cc(Cl)cc(Cl)c1)N1CC[C@@H]2CN(C(=O)c3ccc4[nH]nnc4c3)C[C@H]2C1 (relative stereo)
Result string: 8.40

###

- assay remarks: Glutathione addition screening
- Type: in vitro ADME
- condition notes: human liver microsomes + NADPH + GSH
readout name: GSH adducts

Recorded GSH adducts, per entry:
molecule	GSH adducts
O=C(OCc1cc(Cl)cc(Cl)c1)N1C[C@@H]2CN(C(=O)c3ccc4[nH]c(=O)oc4c3)C[C@@H]2C1	pos
O=C(OCc1ccc(OC(F)(F)F)cc1)N1C[C@@H]2CN(C(=O)c3ccc4[nH]nnc4c3)C[C@H]2C1	Neg
O=C(/C=C/c1ccc(OC(F)(F)F)cc1)N1C[C@@H]2CN(C(=O)c3ccc4[nH]nnc4c3)C[C@H]2C1	Neg
O=C(OCc1cc(Cl)cc(Cl)c1)N1C[C@@H]2CN(C(=O)c3ccc4[nH]nnc4c3)C[C@@H]2C1	pos
CS(=O)(=O)c1cc(Cl)cc(COC(=O)N2C[C@@H]3CN(C(=O)c4ccc5[nH]nnc5c4)C[C@H]3C2)c1	Neg

Query string: What value of GSH adducts has been reported for the following molecule? O=C(OCc1cc(Cl)cc(Cl)c1)N1CCC2(CC1)CN(C(=O)c1ccc3[nH]nnc3c1)C2
Result string: pos

Query string: What value of GSH adducts has been reported for the following molecule? O=C(CCN1CCN(C(=O)OCc2cc(Cl)cc(Cl)c2)CC1)c1ccc2[nH]c(=O)oc2c1 [Compound 1, reference compound]
Result string: pos

###

- assay remarks: Single dose PK in rats
- Type: in vivo
- condition notes: plasma; rat, oral gavage, 10 mg/kg
readout name: Tmax (min)
Report the value in min with no unit label.

Query string: What value of Tmax has been reported for the following molecule? O=C(OCc1ccc(OC(F)(F)F)cc1)N1C[C@@H]2CN(C(=O)c3ccc4[nH]nnc4c3)C[C@H]2C1 [Compound 13]
Result string: 45

###

- assay remarks: Single dose PK in rats
- Assay type: in vivo
- condition notes: plasma; rat, iv bolus, 3 mg/kg
readout name: half-life (min)
Report the value in min with no unit label.

Recorded half-life, per entry:
compound	meas value
O=C(OCc1cc(Cl)cc(Cl)c1)N1C[C@@H]2CN(C(=O)c3ccc4[nH]nnc4c3)C[C@H]2C1 [Compound 7]	48
O=C(CCc1ccc(OC(F)(F)F)cc1)N1C[C@@H]2CN(C(=O)c3ccc4[nH]nnc4c3)C[C@H]2C1 [Compound 14]	78

Field: next compound
Query string: What value of half-life has been reported for the following compound? CS(=O)(=O)c1cc(Cl)cc(COC(=O)N2C[C@@H]3CN(C(=O)c4ccc5[nH]nnc5c4)C[C@H]3C2)c1 [Compound 15]
Result string: 21
